Molecular target: HLA-DR0901 protein (Homo sapiens, UniProt P01903+P01911, A100R/A103E/D57H/D86V/F55Y/F60I/F76Y/I96F/K127E/L162R/M171V/P40D/Q125H/Q99R/R33Q/R42F/S133A/S66N/T210M/V115G/W38K/Y107V/Y59G/Y89S)
Assay: Peptide binding competition assay, DR0901
Residues, ends and D or L forms follow the SMILES beside them.
Recorded endpoint: pKd
Numbers only, as −log10 of the molar value.

# count of solved cases: 2
CC[C@H](C)[C@H](NC(=O)[C@H](CCCCN)NC(=O)[C@H](Cc1c[nH]cn1)NC(=O)[C@H](CC(C)C)NC(=O)[C@H](CO)NC(=O)[C@H](Cc1ccc(O)cc1)NC(=O)[C@H](CC(N)=O)NC(=O)[C@H](Cc1ccccc1)NC(=O)[C@H](CC(N)=O)NC(=O)[C@@H](N)CC(C)C)C(=O)N[C@H](C(=O)N[C@H](C(=O)N[C@@H](CC(=O)O)C(=O)O)C(C)C)[C@@H](C)CC [LNFNYSLHKIIVD] (H-LNFNYSLHKIIVD-OH) = 7.06
CC[C@H](C)[C@H](NC(=O)[C@H](CCCCN)NC(=O)[C@H](CC(=O)O)NC(=O)[C@H](CC(C)C)NC(=O)[C@H](CO)NC(=O)[C@H](Cc1ccc(O)cc1)NC(=O)[C@H](CC(N)=O)NC(=O)[C@H](CCSC)NC(=O)[C@H](CC(N)=O)NC(=O)[C@@H](N)CC(C)C)C(=O)N[C@H](C(=O)N[C@H](C(=O)N[C@@H](CC(=O)O)C(=O)O)C(C)C)[C@@H](C)CC [LNMNYSLDKIIVD] (H-LNMNYSLDKIIVD-OH) = 6.22

Attention now turns to another entry.
Task: Given the compound CC[C@H](C)[C@H](NC(=O)[C@H](CCCCN)NC(=O)[C@H](CC(=O)O)NC(=O)[C@H](CC(C)C)NC(=O)[C@H](CO)NC(=O)[C@H](Cc1ccc(O)cc1)NC(=O)[C@H](CC(N)=O)NC(=O)[C@H](Cc1ccccc1)NC(=O)[C@H](CC(N)=O)NC(=O)[C@@H](N)CC(C)C)C(=O)N[C@@H](CCSC)C(=O)N[C@H](C(=O)N[C@@H](CC(=O)O)C(=O)O)C(C)C [LNFNYSLDKIMVD] (H-LNFNYSLDKIMVD-OH) , what is its reported pKd?
Result: 6.55
